tested on: A549 NSCLC; assay: NCI tumour cell line growth inhibition, 48 h
Task for the reader: assign each of the following compounds its reported GI50.

// sample O=NN(CCCl)C(=O)NCCCl , its GI50 was 210 µM

Sample [Cl-].[Cl-].[Cl-].[O-]c1cccc2cccnc12.[O-]c1cccc2cccnc12.[O]=[Mo] ; GI50 observed: 3.59 µM

The compound CCCS(=O)(=O)Nc1ccc(F)c(C(=O)c2c[nH]c3ncc(Cl)cc23)c1F showed GI50 equal to 9.87 µM

// O=C(O)CNC(=O)C(CS)Cc1ccccc1 (stereo unspecified) : GI50 value = > 25 µM

Query NCCN.NCCN.[Cl-].[O]=[Os+2]=[O] yields GI50 of > 100 µM

Per the records, this compound ( O=C(/C=C/c1ccc(Cl)cc1)/C=C/c1cc2ccccc2[nH]c1=O ) has GI50 equal to 3.16 µM

###

system: MOLT-4 leukemia; assay: NCI tumour cell line growth inhibition, 48 h
*1 amine or outer side, *2 acyl side, *3 side chain or, on linkers, in order; H or OH if unused. Where a SMILES comes first, the peptide text is derived from it. Bridges are numbered along the chain shown (N, C = ends). [ ]: non-standard residue; d: D form. Adda = CO[C@@H](Cc1ccccc1)[C@@H](C)/C=C(C)/C=C/[C@H](N[*:1])[C@H](C)C(=O)[*:2]; dAsp(3S-Me) = C[C@H](C(=O)[*:3])[C@@H](N[*:1])C(=O)[*:2]; d(γGlu) = O=C(O)[C@@H](CCC(=O)[*:2])N[*:1]; NMeDha = C=C(NC)C(=O)O
Please go through the items and note down their TGI.

Summary for this compound, COc1ccc(SCc2cc(OC)c(OC)c(OC)c2)cc1OC : TGI is > 100 µM

What the record says about O=C(COc1ccc(/C=C/C(=O)c2ccc(Cl)cc2)cc1)Nc1c(Cl)cccc1Cl : TGI is > 100 µM

For this compound ( Cc1cc(N(CCC#N)CCC#N)ccc1/C=C\C(=O)Nc1ccccc1 ), measured TGI is > 100 µM

Per the records, this compound ( C[N+](C)(CCNC(=O)c1cccc2cc3ccccc3nc12)Cc1ccc([N+](=O)[O-])cc1 ) has TGI equal to > 100 µM

TGI measured on Cc1ccc2nc(-c3ccc(N)c(Br)c3)sc2c1 = 97.5 µM

TGI reported for this compound COc1ccc(-c2cc(=O)c3c(OC)cccc3o2)c(OC)c1OC : > 100 µM

Measured TGI of C[C@@H]1C[N+]2([O-])[C@H]3C4=CCC[C@@H]4CC[C@H]3[C@@]3(C)OC(=O)CC[C@]34CC[C@H]1[C@@H]42 (some centres not stated) : > 60 µM

The recorded TGI for entry CCn1cc(C(=O)O)c(=O)c2cc(F)c(N3CCN(S(=O)(=O)c4ccc(Cl)cc4)CC3)cc21 equals > 100 µM

Entry O=S(=O)(Nc1ccccc1)c1ccc(-c2c3nc(c(-c4ccc(S(=O)(=O)Nc5ccccc5)cc4)c4ccc([nH]4)c(-c4ccc(S(=O)(=O)Nc5ccccc5)cc4)c4nc(c(-c5ccc(S(=O)(=O)Nc6ccccc6)cc5)c5ccc2[nH]5)C=C4)C=C3)cc1 , TGI reported as > 31.6 µM

Item: O=c1c2cc([N+](=O)[O-])ccc2[nH]n1Cc1ccccn1 | TGI: > 100 µM

// sample O=c1c2cc(F)ccc2sc2c(N3CCNCC3)nc3ccccc3c12 , its TGI was 3.56 µM

Per the records, this compound ( C=CC1(CC)/C(=N\O)C(CC)(CC)C(=O)N1O (configuration not stated) ) has TGI equal to > 100 µM

The measured TGI associated with C/C1=C\[C@H](C)C[C@H](C)OC(=O)C[C@H](c2ccc(O)cc2)NC(=O)[C@H](Cc2ccc(O)c(I)c2)N(C)C(=O)[C@H](C)NC(=O)[C@@H](C)C1 reads > 25 µM

Documented TGI of O=C(Cn1ccnc1[N+](=O)[O-])c1ccccc1 : > 100 µM

Lookup result for Cc1nn(C2OC(CO)C(O)C(F)C2O)c(=O)[nH]c1=O (configuration not stated) ; measured TGI: > 100 µM

Note to self: TGI recorded for CCOC(=O)Nn1c(C)nnc1CC#N was > 100 µM

Documented TGI of O=C(CC1C(=O)Nc2ccccc2S1=O)Nc1ccccc1 (configuration not stated) : > 100 µM

TGI for CN1CCc2c(c3ccccc3c3ccccc23)C1 is 19.9 µM

TGI reading for Cc1cc(O)c(C=O)c2c1C(=O)Oc1c(CO)c(O)c3c(c1O2)C(O)OC3=O (configuration not stated) : 94.1 µM

Entry under test: O=C(O)/C(=C/C(=O)c1ccc(Cl)cc1)NNc1ccc([N+](=O)[O-])cc1[N+](=O)[O-] . Its TGI was > 100 µM

Noted for CC1=NN(c2nc(N)nc(C(C#N)C(=O)c3cc4c(cc3Cl)Sc3nccn3S4(=O)=O)n2)C(C)(C)C1 (configuration not stated) : its TGI reads 68.2 µM

The recorded TGI for Nc1nc(/C=C\c2ccc([N+](=O)[O-])cc2)nc(N2CCN(c3ccccc3)CC2)n1 is > 100 µM

TGI reading for Cc1cc(NS(=O)(=O)c2ccc(NC(=O)c3cccn4c(=O)c5ccccc5nc34)cc2)no1 : > 100 µM

Consider O=S(=O)(O)SC/C=C\CSS(=O)(=O)O . Its measured TGI is > 100 µM

Value of TGI reported for the compound COc1ccc(C(=O)c2cc(OC)c3c(c2)OCO3)cc1O is > 100 µM

Recorded result, N=C(N)N=Nc1ccc(NN=C(N)N)c2c1ncc1c2nc2sccn21 , TGI: > 100 µM

In plain terms, CCCC1C(CC)C(NC)C(C#N)(C#N)C1(C#N)C#N (configuration not stated) has a documented TGI of 76.9 µM

Documented TGI of O=C1C=CC(=O)N1C1CCCCCCCCCCC1 : 20.1 µM

Given item C=C1C(=O)N[C@H](C)C(=O)N[C@@H](CC(C)C)C(=O)N[C@@H](C(=O)O)[C@H](C)C(=O)N[C@@H](CCCN=C(N)N)C(=O)N[C@@H](/C=C/C(C)=C/[C@H](C)[C@H](Cc2ccccc2)OC)[C@H](C)C(=O)N[C@@H](C(=O)O)CCC(=O)N1C (R[Adda][d(γGlu)][NMeDha][dA]L[dAsp(3S-Me)]-OH; lactam N-7) , the value recorded as its TGI is > 5 µM

Value of measured TGI for the entry COc1cc(/C=C2\C(=O)N(c3cc(Cl)ccc3Cl)C(c3ccccc3)S2(=O)=O)cc(OC)c1OC (configuration not stated) : 99.4 µM

Entry CCOc1nc(-c2ccccc2)cc2c(O)c(C(=O)N/N=C/c3ccc(O)cc3O)[nH]c(=O)c12 ; TGI = > 94.4 µM

get_value(item= C#C[C@]1(O)CC[C@H]2[C@@H]3CCC4=CC(=NCCOC(=O)c5cccc6cc7ccccc7nc56)CC[C@@H]4[C@H]3CC[C@@]21C , readout=TGI) returns > 100 µM

Form field TGI, entry O=C(/C=C/c1ccc(Cl)cc1)/C=C/c1cc2ccccc2[nH]c1=O : 13.8 µM

Entry CCN1CCN(c2cc(C)nc(N(CCNc3ccnc4cc(Cl)ccc34)Cc3ccc4c(c3)OCO4)n2)CC1 , TGI reported as 3.1 µM

In plain terms, CN(C)Cc1cc(N=Nc2ccccc2)ccc1O has a documented TGI of > 100 µM

Record summary for CCOC(=O)[C@H]1O[C@@H]1C(=O)N[C@@H](CC(C)C)C(=O)NCCc1ccc(O)cc1 : reported TGI = > 100 µM

Entry O=C1OCC=C1COC1OC(CO)C(O)C(O)C1O (configuration not stated) , TGI reported as > 100 µM
